Recorded Ki for the following compounds
biological target: N. fowleri Nfa-1 hemerythrin (Naegleria fowleri, UniProt Q9NH76); construct: made in house; host or cells: E. coli; experiment: biochemical
Sequence (Q9NH76 whole entry): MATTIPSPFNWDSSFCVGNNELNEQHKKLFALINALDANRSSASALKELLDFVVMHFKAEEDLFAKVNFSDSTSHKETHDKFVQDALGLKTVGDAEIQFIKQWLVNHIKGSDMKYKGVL
Please state the figure in µM; there is no need to write the unit.

Lookup result for c1ccc2c(c1)[I+]c1ccccc1-2 [DPI, diphenyleneiodonium chloride] ; measured Ki: 19

Lookup result for O=C(O)c1cc[c]([Hg][OH])cc1 [pHMB, para-hydroxymercuribenzoate] ; measured Ki: 78

Lookup result for O=c1[nH]cnc2nc[nH]c12 ; measured Ki: 1000
